# Tested on: immobilized GST-tagged bait protein domains
# test_summary: ProP-PD phage selections (HD2 P8, sublibraries, HD2 P3, HD1 P8) with NGS and confidence level
# Type: binding, human
# test_settings: bait CALM1 EF-hand (P0DP23, 2-149); HD2 library selection; confidence level (4 = High, 2 or 3 = Medium, 1 = Low)
assay_metric: HD2 confidence
Would you mind answering with just the numeric figure?

[[record]]
entry_sequence = "WEALNDSVKTSMHWVV"
assayed_target = "immobilized GST-tagged bait protein domains"
recorded_number = 3

[[record]]
entry_sequence = "SLWTALSNFSMPSFPG"
assayed_target = "immobilized GST-tagged bait protein domains"
recorded_number = 4

[[record]]
entry_sequence = "LSWPDLLSDPSIVGSN"
assayed_target = "immobilized GST-tagged bait protein domains"
recorded_number = 3

[[record]]
entry_sequence = "DWSNLVDAAKAYEVQR"
assayed_target = "immobilized GST-tagged bait protein domains"
recorded_number = 3


Now look at this entry.
Exam item: Give me measured HD2 confidence, please, for this sequence: `SRWEVIANYMNIHSSS`
Marked response: 3

###

# assayed_target: KPNA4 ARM (Homo sapiens)
# Construct: O00629; KPNA4; Arm; 68; 487; pETM33/pETM41; Genescript; made in house; host or cells: bacteria (E. coli BL21(DE3) gold is named only for the phage-selection preparations)
# test_summary: FP competition, KPNA4 ARM minor pocket (FITC-NCOR2 probe)
# Assay type: binding
# test_settings: read-out: KD (Fig 5D)
Where no end group is shown, it is not given here.
assay_metric: pKd
Scale explanation: pKd corresponds to minus log10 of a concentration expressed in moles per litre.

Exam item: // Input: GKKRTFDETVSTYVPL-NH2 [TPX2] . Output its pKd only.
Marked response: 7.33

###

# assayed_target: KPNA4 ARM (Homo sapiens, UniProt O00629)
# Construct: O00629; KPNA4; Arm; 68; 487; pETM33/pETM41; Genescript; made in house; host or cells: bacteria (E. coli BL21(DE3) gold is named only for the phage-selection preparations)
# Sequence (O00629 68-487): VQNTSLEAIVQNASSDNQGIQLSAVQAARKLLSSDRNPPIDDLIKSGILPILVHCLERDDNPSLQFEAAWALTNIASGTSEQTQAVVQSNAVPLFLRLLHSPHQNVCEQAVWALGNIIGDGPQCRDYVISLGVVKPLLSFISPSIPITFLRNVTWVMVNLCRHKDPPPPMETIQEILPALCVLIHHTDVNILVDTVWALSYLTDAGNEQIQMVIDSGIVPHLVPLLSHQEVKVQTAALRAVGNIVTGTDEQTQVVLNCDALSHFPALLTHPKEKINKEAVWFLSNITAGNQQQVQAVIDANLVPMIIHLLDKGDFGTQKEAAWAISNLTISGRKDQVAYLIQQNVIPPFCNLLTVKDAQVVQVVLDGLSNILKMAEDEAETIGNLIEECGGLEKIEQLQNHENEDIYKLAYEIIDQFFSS
# test_summary: FP competition, KPNA4 ARM major pocket (FITC-Myc probe)
# Format: binding
assay_metric: Ki (µM)
Respond numerically; units are µM and should not be typed.

Exam item: Output Ki of Ac-YKCKRQRQDQTLELVGL-NH2 [NKX2-5 Wt]
Marked response: 6.8

###

best_confidence values, listed per item
# System: immobilized GST-tagged bait protein domains
# test_summary: ProP-PD phage selections (HD2 P8, sublibraries, HD2 P3, HD1 P8) with NGS and confidence level
# Type: binding, human
# test_settings: bait OXSR1___O95747_434_527; HD2 library; confidence level (1-4) of best matching selected peptide
# answer = number (no unit)

[[record]]
entry_sequence = "DATLCSGRFTISTLLS"
recorded_number = 2

[[record]]
entry_sequence = "TKVGRFQVTTTANKVG"
recorded_number = 4

[[record]]
entry_sequence = "VGRFQVTSSKEPAEPL"
recorded_number = 4


Exam item: For the sequence `TTTANKVGRFSVSKTE` , report best_confidence.
Marked response: 2

###

Consider the following sequences and their measured HD count proportions readings.
# Tested on: immobilized GST-tagged bait protein domains
# test_summary: ProP-PD phage selections (HD2 P8, sublibraries, HD2 P3, HD1 P8) with NGS and confidence level
# Type: binding, human
# test_settings: bait AP2B1_adaptin__P63010_700_937; library HD; mean normalised NGS counts
A bare number is all that is needed in reply.

[[record]]
entry_sequence = "VQPKQDAFANFANFSK"
assayed_target = "immobilized GST-tagged bait protein domains"
recorded_number = 0.0004926

[[record]]
entry_sequence = "EETFQLSRWTPFIKDI"
assayed_target = "immobilized GST-tagged bait protein domains"
recorded_number = 0.004596

[[record]]
entry_sequence = "FADFSTLSKVNNEDPF"
assayed_target = "immobilized GST-tagged bait protein domains"
recorded_number = 0.0005532

[[record]]
entry_sequence = "DVDYFGQQFDQISNRT"
assayed_target = "immobilized GST-tagged bait protein domains"
recorded_number = 0.1904


Now consider the entry below.
Exam item: Output measured HD count proportions for this item: `EPSTTPNNWADFSSTW`
Marked response: 0.0006275

###

# Tested on: immobilized GST-tagged bait protein domains
# test_summary: ProP-PD phage selections (HD2 P8, sublibraries, HD2 P3, HD1 P8) with NGS and confidence level
# Type: binding, human
# test_settings: bait CALM1_EF-hand__P0DP23_2_149; library HD2; benchmarking set of validated motif instances; TRUE = motif instance recovered in the ProP-PD selection
assay_metric: motif_found

Answered cases to consult:
[[record]]
substance = "QQKQRQKHFNRQIPAAASLIQTAWRCYAAENPDSSTWKIYIRKAPRSHTLLSPSPKPKKSVVVKKKKFKLDKDNGVTPGEKMLTVPHITCDPPEERRLDHFSVDGYDSSVRKSPTLLEVSMPHFMRTNSFAEDLDLEGETLLTPITHISQLREHHRATIKVIRRMQYFVAKKKFQQARKP [KCNQ1]"
assay_metric = "motif_found"
result = "FALSE"

[[record]]
substance = "LRRGQILWFRGLNRIQTQIDVINTFQTGASFKGVLRRQNMGQHLDVKLVPSSSYIKVVKAFHSS [ATP2B4]"
assay_metric = "motif_found"
result = "FALSE"

[[record]]
substance = "AFIIWLARRLKKGKK [SELL]"
assay_metric = "motif_found"
result = "FALSE"

[[record]]
substance = "KKKATFRAITSTLASSFKRR [GRIN1]"
assay_metric = "motif_found"
result = "FALSE"

[[record]]
substance = "KKRFSFKKSFKLSGFSFK [MARCKS]"
assay_metric = "motif_found"
result = "FALSE"


# context switch: different substance, same motif_found
Exam item: Fetch value of motif_found on immobilized GST-tagged bait protein domains for ARKEVIRNKIRAIGKMARVFSVLR,VIRNKIRAIGKMARVFS,KEVIRNKIRAIGKMARVFS [PPP3CA] .
Marked response: FALSE

###

# Test system: immobilized GST-tagged bait protein domains
# test_summary: ProP-PD phage selections (HD2 P8, sublibraries, HD2 P3, HD1 P8) with NGS and confidence level
# Format: binding, human
# test_settings: library HD2; bait VASP_EVH1__P50552_1_114; validated benchmark motif instance, in_library_check TRUE; TRUE/FALSE = instance recovered in ProP-PD selection
assay_metric: motif_found

[[record]]
entry_sequence = "VPSPASLWPPPPSPAPSST"
assay_metric = "motif_found"
result = "FALSE"

[[record]]
entry_sequence = "PPPIEESFPPAPLEEEIFP"
assay_metric = "motif_found"
result = "FALSE"

[[record]]
entry_sequence = "DFPPPPPDLEQLRLTD"
assay_metric = "motif_found"
result = "TRUE"

[[record]]
entry_sequence = "APLEEEIFPSPPPPPEEEG"
assay_metric = "motif_found"
result = "FALSE"

[[record]]
entry_sequence = "RMATAEDLPLPPPPALEDL"
assay_metric = "motif_found"
result = "FALSE"


Exam item: Report motif_found, nothing else, for this sequence: `GGMNWADLLPPPPAHP`
Marked response: TRUE

Exam item: Supply reported motif_found belonging to this sequence: `EGALGGAFPPPPPPIEESF`
Marked response: FALSE

Exam item: Name the recorded motif_found of the sequence listed here: `NRVAYIEFPPPPPLDADQI`
Marked response: FALSE

Exam item: Quote motif_found reported for `QSGSGGIFPPPPDDDIYDG` please.
Marked response: FALSE

Exam item: Tell me motif_found reported for `PPPPPEDFPLPPPPLAGDG`
Marked response: FALSE

Exam item: Write down motif_found measured for item `PPPEDFPLPPPPLAGDGDD`
Marked response: FALSE

###

# assayed_target: TLN1 PTB (Homo sapiens)
# Construct: Q9Y490; TLN1; PTB; 309; pHH0103; Sidhu Lab (PMID: 33438817); made in house; host or cells: bacteria (E. coli BL21(DE3) gold is named only for the phage-selection preparations)
# Sequence (Q9Y490 309-401): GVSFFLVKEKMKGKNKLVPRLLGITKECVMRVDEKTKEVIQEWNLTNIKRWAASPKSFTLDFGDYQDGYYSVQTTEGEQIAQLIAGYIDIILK
# test_summary: FP competition, TLN1 PTB
# Type: binding
# test_settings: Fig 3C; FP competition with FITC-PIP5K1C probe; triplicates
Where no end group is shown, it is not given here.
assay_metric: pKi
Notebook: values listed as pKi are -log10 of the concentration (mol/L).

Exam item: Item FPTDERSWVYSPLHYS-NH2 [PIP5K1C] : provide pKi
Marked response: 7.18

###

# Test system: immobilized GST-tagged bait protein domains
# test_summary: ProP-PD phage selections (HD2 P8, sublibraries, HD2 P3, HD1 P8) with NGS and confidence level
# Assay type: binding, human
# test_settings: bait CALM1 EF-hand (P0DP23, 2-149); HD2 library selection with 1mM_CaCl; confidence level (4 = High, 2 or 3 = Medium, 1 = Low)
assay_metric: HD2-1mM_CaCl confidence
// print number alone

Previously resolved entries follow.
[[record]]
entry_sequence = "SLWTALSNFSMPSFPG"
recorded_number = 4

[[record]]
entry_sequence = "DWSNLVDAAKAYEVQR"
recorded_number = 2


Exam item: GET HD2-1mM_CaCl confidence where system = immobilized GST-tagged bait protein domains and item = `SRWEVIANYMNIHSSS`
Marked response: 3

Exam item: Under immobilized GST-tagged bait protein domains: report HD2-1mM_CaCl confidence of `WEALNDSVKTSMHWVV` .
Marked response: 2

Exam item: Please report HD2-1mM_CaCl confidence with immobilized GST-tagged bait protein domains for item `LSWPDLLSDPSIVGSN` .
Marked response: 3
